Each entry below carries its reported pIC50.
target: PDK1 kinase (Homo sapiens, UniProt O15530); test: PDK1 Kinase Alpha Screen Assay; assay type: biochemical; settings: PDK1 Kinase Alpha Screen Assay; read-out: PDK1 IC50
Sequence (O15530 whole entry): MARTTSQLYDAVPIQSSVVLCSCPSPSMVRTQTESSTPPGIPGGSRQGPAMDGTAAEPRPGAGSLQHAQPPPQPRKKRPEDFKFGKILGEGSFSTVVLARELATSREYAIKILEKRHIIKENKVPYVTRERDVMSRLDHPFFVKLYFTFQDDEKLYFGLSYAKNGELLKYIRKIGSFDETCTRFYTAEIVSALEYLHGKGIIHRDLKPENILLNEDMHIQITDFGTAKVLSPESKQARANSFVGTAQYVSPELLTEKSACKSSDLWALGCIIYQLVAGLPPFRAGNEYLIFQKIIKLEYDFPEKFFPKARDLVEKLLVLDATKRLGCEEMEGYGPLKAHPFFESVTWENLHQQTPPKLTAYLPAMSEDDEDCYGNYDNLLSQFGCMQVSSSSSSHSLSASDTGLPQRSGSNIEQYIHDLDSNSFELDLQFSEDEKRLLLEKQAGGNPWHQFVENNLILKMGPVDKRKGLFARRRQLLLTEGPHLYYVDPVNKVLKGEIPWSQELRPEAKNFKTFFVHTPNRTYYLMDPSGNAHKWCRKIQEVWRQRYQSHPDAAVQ
pIC50: −log10 of the molar value.

Q: // lookup pIC50 for CC(C)N1CCC(Oc2cc3nc(Nc4ccc(N5CCOCC5)cc4)ncc3cc2-c2nccs2)CC1 [Compound 619]
Ans: > 5.30

Q: // lookup pIC50 for Cc1cc(S(N)(=O)=O)ccc1Nc1ncc2cccc(OC(C)C)c2n1 [Compound 562]
Ans: 4.60 to 5.00

Q: // lookup pIC50 for CC(=O)Nc1ccc(Nc2ncc3cccc(-c4ccc(NCCN5CCCC5)nc4)c3n2)cc1 [Compound 396]
Ans: > 5.30

Q: // lookup pIC50 for CC(C)N1CCC(Oc2cccc3cnc(N)nc23)CC1 [Compound 523]
Ans: 5.00 to 5.30

Q: // lookup pIC50 for Cc1cc(Nc2ncc3ccc(OC4CCN(C(C)C)CC4)cc3n2)ccc1F [Compound 327]
Ans: > 5.30

Next:
Q: // lookup pIC50 for CC(C)N1CCC(Oc2cccc3cnc(Nc4cccc(S(=O)(=O)N5CCOCC5)c4)nc23)CC1 [Compound 774]
Ans: > 5.30
